biological target: Trypsin (Bos taurus, UniProt P00760); test: Inhibitory effect on ester-hydrolyzing activity of trypsin (TAMe substrate); format: biochemical; conditions: Example 6; read-out: ID50, tosylarginine methyl ester hydrolyzing activity of trypsin (unit inferred)
Sequence (P00760 24-246): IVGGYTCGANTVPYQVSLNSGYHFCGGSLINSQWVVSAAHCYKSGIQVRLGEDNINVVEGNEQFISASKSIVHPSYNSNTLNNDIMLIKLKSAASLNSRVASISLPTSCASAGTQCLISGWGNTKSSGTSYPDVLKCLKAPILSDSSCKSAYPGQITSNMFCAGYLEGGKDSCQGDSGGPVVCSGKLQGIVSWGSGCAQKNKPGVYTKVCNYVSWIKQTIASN
Structures can show the parent of a compound that is named as a salt.
measure.name: pIC50
Answers are plain numbers, as −log10 of the molar value.

Prompt: Would you mind telling me what pIC50 value was observed for CCOC(=O)c1ccc(OC(=O)C2CCCc3c(NC(=N)N)cccc32)cc1 (stereo not shown) [Compound 121, hydrochloride] ?
Response: 4.13

* * *

molecular target: Human Plasmin (Homo sapiens, UniProt P00747)
Sequence (P00747 581-810 limits assumed): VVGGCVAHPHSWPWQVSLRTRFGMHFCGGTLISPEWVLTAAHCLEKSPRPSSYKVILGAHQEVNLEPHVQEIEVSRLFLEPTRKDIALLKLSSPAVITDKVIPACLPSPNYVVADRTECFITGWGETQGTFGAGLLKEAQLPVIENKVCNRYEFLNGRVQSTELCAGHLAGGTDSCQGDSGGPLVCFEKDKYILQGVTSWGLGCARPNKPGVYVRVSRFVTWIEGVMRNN
Sequence (P00747 97-580 partner limits assumed): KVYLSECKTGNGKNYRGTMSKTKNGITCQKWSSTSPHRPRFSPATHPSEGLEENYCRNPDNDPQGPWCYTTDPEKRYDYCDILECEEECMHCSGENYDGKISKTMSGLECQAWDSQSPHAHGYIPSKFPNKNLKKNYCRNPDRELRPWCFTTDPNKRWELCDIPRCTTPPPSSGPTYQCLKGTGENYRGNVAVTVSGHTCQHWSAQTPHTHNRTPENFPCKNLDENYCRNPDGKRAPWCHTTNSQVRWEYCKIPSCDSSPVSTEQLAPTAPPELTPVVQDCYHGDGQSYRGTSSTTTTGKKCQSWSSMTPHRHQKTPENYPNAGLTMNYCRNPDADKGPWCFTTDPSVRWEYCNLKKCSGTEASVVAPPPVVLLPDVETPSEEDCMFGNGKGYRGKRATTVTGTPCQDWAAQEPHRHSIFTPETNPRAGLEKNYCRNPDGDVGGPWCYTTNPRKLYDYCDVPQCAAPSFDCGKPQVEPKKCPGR
For each entry below, report its pIC50 value.
Give bare numbers, as −log10 of the molar value.

Record excerpt, results attached:
molecule="CN(C)C(=O)COC(=O)CCc1ccc(OC(=O)C2CCCc3ccc(NC(=N)N)cc32)cc1 (centres unmarked)" target_or_test_system="Human Plasmin (Homo sapiens, UniProt P00747)" reported=3.40
molecule="COC(=O)c1ccc(OC(=O)C2CCCc3c(NC(=N)N)cccc32)cc1 (centres unmarked)" target_or_test_system="Human Plasmin (Homo sapiens, UniProt P00747)" reported=3.00
molecule="CCCCOc1ccc(OC(=O)C2CCCc3c(NC(=N)N)cccc32)cc1 (centres unmarked)" target_or_test_system="Human Plasmin (Homo sapiens, UniProt P00747)" reported=3.00

Report pIC50 for every entry below.
1. CN(C)C(=O)COC(=O)c1ccc(OC(=O)C2CCCc3ccc(N)cc32)cc1 (centres unmarked)
2. N=C(N)Nc1ccc2c(c1)C(C(=O)Oc1ccc(OC(=O)C3CCCc4ccc(NC(=N)N)cc43)cc1)CCC2 (centres unmarked)
3. COc1cccc(OC(=O)C2CCCc3ccc(NC(=N)N)cc32)c1 (centres unmarked)
4. CCOC(=O)COC(=O)CCc1ccc(OC(=O)C2CCCc3ccc(NC(=N)N)cc32)cc1 (centres unmarked)
5. N=C(N)Nc1ccc2c(c1)C(C(=O)Oc1ccc(Cl)cc1)CCC2 (centres unmarked)
6. N=C(N)Nc1cccc2c1CCCC2C(=O)Oc1ccc(C(=O)OCc2ccccc2)cc1 (centres unmarked)

Response:
1. 4.28
2. 4.00
3. 3.00
4. 3.68
5. 3.00
6. 4.22

* * *

Assignment: determine reported LD50 for the given compounds.
experiment: Acute toxicity (LD50) by intraperitoneal administration in mice; conditions: mouse, in vivo, ip
Give bare numbers, in mg/kg.

The cases that follow already have their LD50 on record.
compound="COC(=O)c1ccc(OC(=O)C2CCCc3c(NC(=N)N)cccc32)cc1 (stereo not shown)" measure_name=LD50 output_unit=mg/kg reported=192
compound="COC(=O)c1ccc(OC(=O)C2CCCc3ccc(NC(=N)N)cc32)cc1 (stereo not shown)" measure_name=LD50 output_unit=mg/kg reported=192
compound="CCOC(=O)c1ccc(OC(=O)C2CCCc3ccc(NC(=N)N)cc32)cc1 (stereo not shown)" measure_name=LD50 output_unit=mg/kg reported=92

Now take the following compound into account.
Prompt: If you can, please state the reported LD50 value of N=C(N)Nc1cccc2c1CCCC2C(=O)Oc1ccc(Cl)cc1 (stereo not shown) .
Response: 333

* * *

target: Bovine Thrombin (Bos taurus, UniProt P00735); experiment: Inhibitory effect on ester-hydrolyzing activity of bovine thrombin (TAMe substrate); assay type: biochemical; details: at 10^-3 M; in vitro, TAMe; read-out: Thrombin percent inhibition
Label scheme for inhibition at 1000 µM: lower than 20% is FALSE, 20% and above is TRUE.

compound="CCCOC(=O)c1ccc(OC(=O)C2CCCc3c(N)cccc32)cc1 (stereo not shown)" class_label=FALSE
compound="CCOC(=O)COC(=O)c1ccc(OC(=O)C2CCCc3ccc(N)cc32)cc1 (stereo not shown)" class_label=TRUE
compound="Nc1cccc2c1CCCC2C(=O)Oc1ccc(OC(=O)C2CCCc3c(N)cccc32)cc1 (stereo not shown)" class_label=TRUE
compound="CCOC(=O)c1ccc(OC(=O)C2CCCc3c(N)cccc32)cc1.Cl (stereo not shown) [Compound 66, hydrochloride]" class_label=FALSE
compound="CCOC(=O)COC(=O)c1ccc(OC(=O)C2CCCc3c(N)cccc32)cc1 (stereo not shown)" class_label=TRUE
compound="N=C(N)Nc1cccc2c1CCCC2C(=O)Oc1cccc2c1CCCC2 (stereo not shown)" class_label=FALSE
compound="N=C(N)Nc1ccc2c(c1)C(C(=O)Oc1cccc3ccccc13)CCC2 (stereo not shown)" class_label=TRUE
compound="CCOC(=O)c1ccc(OC(=O)C2CCCc3ccc(N)cc32)cc1 (stereo not shown)" class_label=TRUE

Prompt: Identify whether the reported inhibition at 1000 µM of the following compound is 20% or greater: N=C(N)Nc1cccc2c1CCCC2C(=O)Oc1ccc(Cl)cc1 (stereo not shown)
Response: FALSE

Prompt: Is it the case that CCCOC(=O)c1ccc(OC(=O)C2CCCc3ccc(N)cc32)cc1 (stereo not shown) has inhibition at 1000 µM reaching or exceeding 20%?
Response: TRUE

Prompt: Exam item: decide whether the reported inhibition at 1000 µM for CCCOC(=O)c1ccc(OC(=O)C2CCCc3c(NC(=N)N)cccc32)cc1 (stereo not shown) is at least 20%.
Response: TRUE
